Target: IL-1R/IL-1RacP receptor on porcine cells and vessels (porcine (piglet), UniProt A0A5G2QSI4 18-572)
Sequence (A0A5G2QSI4 entry or part of it): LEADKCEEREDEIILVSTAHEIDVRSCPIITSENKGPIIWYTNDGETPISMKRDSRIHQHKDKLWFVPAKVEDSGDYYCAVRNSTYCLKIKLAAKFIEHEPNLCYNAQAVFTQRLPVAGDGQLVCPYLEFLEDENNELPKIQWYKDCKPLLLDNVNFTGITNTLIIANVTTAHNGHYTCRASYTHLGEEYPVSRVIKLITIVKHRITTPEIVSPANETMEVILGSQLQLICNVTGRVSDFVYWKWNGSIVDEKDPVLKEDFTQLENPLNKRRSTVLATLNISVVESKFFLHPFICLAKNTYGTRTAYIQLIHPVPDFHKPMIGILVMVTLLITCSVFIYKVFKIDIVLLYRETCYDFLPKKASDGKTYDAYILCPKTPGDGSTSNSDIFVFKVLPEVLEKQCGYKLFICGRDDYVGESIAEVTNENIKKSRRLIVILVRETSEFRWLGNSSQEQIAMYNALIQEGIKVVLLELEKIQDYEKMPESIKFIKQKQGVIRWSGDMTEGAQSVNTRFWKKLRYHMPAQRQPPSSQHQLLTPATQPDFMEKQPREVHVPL
Experiment: cell-based or functional assay
Where no end group is shown, it is not given here. [ ]: non-standard residue; d: D form.
Property name: IC50, IL-1β-induced PGE2 synthesis in endothelial cells (porcine) (pM)

binder="[dR][dY][dT][dP][dD][dL][dA] [API-101.117]" measurement_units=pM measurement=10

A = [dR][dW][dT][dP][dE][dL][dA] [API-101.116]
B = [dR][dY][dT][dP][dE][dL] [API-101.113]
C = [dK][dY][dT][dP][dE][dL][dA] [API-101.114]
Problem: Put the items in order so that reported IC50, IL-1β-induced PGE2 synthesis in endothelial cells (porcine) rises from first to last. Record the ranking as a list of labels in the requested order.
Solution: C, B, A
(C: 2 pM, B: 7.4 pM, A: 13 pM)
